target: human cannabinoid receptor type 1 (CB1) (human, UniProt P21554 1-472); experiment: cell-based or functional assay; note: test concentration or dose not given here
Sequence (P21554 whole entry): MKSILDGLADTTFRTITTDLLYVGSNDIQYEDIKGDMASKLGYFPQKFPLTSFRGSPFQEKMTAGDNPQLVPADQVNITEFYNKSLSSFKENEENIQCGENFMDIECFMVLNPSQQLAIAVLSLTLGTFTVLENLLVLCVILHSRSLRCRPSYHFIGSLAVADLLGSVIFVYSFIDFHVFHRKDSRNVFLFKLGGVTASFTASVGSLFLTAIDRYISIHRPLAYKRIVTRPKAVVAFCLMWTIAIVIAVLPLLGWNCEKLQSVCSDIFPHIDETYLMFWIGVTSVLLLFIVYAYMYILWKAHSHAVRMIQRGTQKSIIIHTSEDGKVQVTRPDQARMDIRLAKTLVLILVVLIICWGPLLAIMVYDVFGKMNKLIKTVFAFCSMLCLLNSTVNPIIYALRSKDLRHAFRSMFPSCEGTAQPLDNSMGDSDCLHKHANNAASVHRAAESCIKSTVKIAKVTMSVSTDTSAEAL
binders and their reported Mean P-ERK (% inhibition)
Answer in % inhibition, number only, no unit symbol.

M2 mouse anti-huCB-1 antibody (antibody, V domains shown) VH: EVQLQQSGPELVKPGTSVKISCKASGYTFTDYNMHWVKLGKSLEWIGYFYPDDGGSGYNQKFKGKATLTIDKSSSTAYMELHSLTSEDSAVYYCARGYGNSWGTYWGQGTLVTVSA VL: EIVLTQSPTTMAASPGEKITITCSASSRISSNYLYWYQQKPGFSPKLLIYRTSNLASGVPARFSGSGSGTSYSLTIGTMEAEDVATYYCQQGSSIPYTFGGGTKLEIK | 59

Problem: I'd like to know its Mean P-ERK (% inhibition). The binder in question is M4 mouse anti-huCB-1 antibody (antibody, V domains shown) VH: QVQLQQSGAELVRPGSSVKISCKASGYEFNYYWMNWVKQRPGQGLEWIGQIYPGDGDINYNGKFKGKATLTSDKSSSTVYMQLSSLTSEDSAVYFCSRSKGNPFAYWGQGTLVTVSA VL: DIQMTQTTSSLSASLGDSVTISCRASQGIRNYLNWYQQKPDGTVKLLIYYTSRLHSGVPPRFSGSGSGTDYSLTISNLEQEDLATYFCQQGNTLPYTFGGGTKLEIK
Result: 70

Problem: I'd like to know its Mean P-ERK (% inhibition). The binder in question is M1 mouse anti-huCB-1 antibody (antibody, V domains shown) VH: QVQLQQSGAELVRPGVSVKISCKGSGYTFTDHALHWVKQSQARSLEWIGIISTYYGDATYNQKFKGKATMTVDKSSSTAYMELARLTSEDSAFYYCARGGLYYGTNYRAMDYWGQGTSVTVSS VL: DIVMTQSQKFMSTSVGDRVSVTCKASQNVGSNVAWYQQKPGQSPKALIYSASYRYSGVPDRFTGSGSGTDFTLTISNVQSEDLAEYFCQQYNNYPFTFGSGTKLEIK
Result: 68

Problem: I'd like to know its Mean P-ERK (% inhibition). The binder in question is M7 mouse anti-huCB-1 antibody (antibody, V domains shown) VH: EVQLQQPGAELVRPGASVKLSCKASSYTFTRYWMNWVKQRPEEGLEWIGMIDPYDSETHYNQKFKDKAILTVDKSSSTAYMQLSTLTSEDSAVYFCARSQPRYYAMDYWGQGTSVTVSS VL: DIQMSQSPSSLSASLGERVSLTCRASQEISGFLSWLQLRPDGTIKRLIYAASSLDSGVPKRFRGSWSGSDYSLTISSLESEDFADYYCLQYSSYPYTFGGGTKLEIK
Result: 95

Problem: I'd like to know its Mean P-ERK (% inhibition). The binder in question is M3 mouse anti-huCB-1 antibody (antibody, V domains shown) VH: QVQLQQSGPELVRPGVSVKISCKGSGYEFTDYALHWVKQSHAETLEWIGLITTYYGDTNYNQKFKGKATMTVDKSSSTAYMELARLTSEDSAIYYCARGGYYYGTDYRYFDVWGAGTTVTVSS VL: DILLTQSPAILSVSPGERVSFSCRASQSIGTNIHWYQQRPNGSPRLLIKYASESISGIPSRFSGSGSGSDFTLSINSVESEDIADYYCQQSITWPLTFGAGTKLELK
Result: 59
